system: Haemophilus parasuis; assay: in vitro susceptibility, MIC by mini broth dilution; format: cell-based
Attribute: MIC values, Haemophilus parasuis
Numbers only here, please. The scale is ug/mi.

// worked examples, MIC values, Haemophilus parasuis included
[[record]]
compound = "CCC1OC(=O)C(C)C(OC2CC(C)(OC)C(O)(CNc3cc(C)ccc3F)C(C)O2)C(C)C(OC2OC(C)CC(N(C)C)C2O)C(C)(O)CC(C)NCC(C)C(O)C1(C)O (stereo not drawn) [syzx-96]"
measuredresult = 0.5

[[record]]
compound = "CCCN1C[C@H](C)[C@@H](O)[C@](C)(O)[C@@H](CC)OC(=O)[C@H](C)[C@@H](O[C@H]2C[C@@](C)(OC)[C@](O)(CNCCCCO)[C@H](C)O2)[C@H](C)[C@@H](O[C@@H]2O[C@H](C)C[C@H](N(C)C)[C@H]2O)[C@](C)(O)C[C@H]1C [syzx-133]"
measuredresult = 0.5

[[record]]
compound = "CCCN1C[C@H](C)[C@@H](O)[C@](C)(O)[C@@H](CC)OC(=O)[C@H](C)[C@@H](O[C@H]2C[C@@](C)(OC)[C@](O)(CN(C)CCO)[C@H](C)O2)[C@H](C)[C@@H](O[C@@H]2O[C@H](C)C[C@H](N(C)C)[C@H]2O)[C@](C)(O)C[C@H]1C [syzx-239]"
measuredresult = 2


// query Identify measured MIC values, Haemophilus parasuis obtained with Haemophilus parasuis for CCCCCNC[C@]1(O)[C@H](C)O[C@@H](O[C@H]2[C@H](C)[C@@H](O[C@@H]3O[C@H](C)C[C@H](N(C)C)[C@H]3O)[C@](C)(O)C[C@@H](C)N(CCC)C[C@H](C)[C@@H](O)[C@](C)(O)[C@@H](CC)OC(=O)[C@@H]2C)C[C@@]1(C)OC [syzx-147] .
// result 0.25

// query State, for Haemophilus parasuis, measured MIC values, Haemophilus parasuis of the compound listed here: CC[C@H]1OC(=O)[C@H](C)[C@@H](O[C@H]2C[C@@](C)(OC)[C@](O)(CNCCN3CCCC3)[C@H](C)O2)[C@H](C)[C@@H](O[C@@H]2O[C@H](C)C[C@H](N(C)C)[C@H]2O)[C@](C)(O)C[C@@H](C)NC[C@H](C)[C@@H](O)[C@]1(C)O [syzx-90]
// result 2

// query # return MIC values, Haemophilus parasuis for CCCN1C[C@H](C)[C@@H](O)[C@](C)(O)[C@@H](CC)OC(=O)[C@H](C)[C@@H](O[C@H]2C[C@@](C)(OC)[C@](O)(CNCC3CCNCC3)[C@H](C)O2)[C@H](C)[C@@H](O[C@@H]2O[C@H](C)C[C@H](N(C)C)[C@H]2O)[C@](C)(O)C[C@H]1C [syzx-193] , test system: Haemophilus parasuis
// result 2

// query Would you please give the reported MIC values, Haemophilus parasuis of CCC1OC(=O)C(C)C(OC2CC(C)(OC)C(O)(CNCc3ccc(C)o3)C(C)O2)C(C)C(OC2OC(C)CC(N(C)C)C2O)C(C)(O)CC(C)NCC(C)C(O)C1(C)O (stereo not drawn) [syzx-78] with Haemophilus parasuis?
// result 0.25

// query Answer with MIC values, Haemophilus parasuis of CCCN1C[C@H](C)[C@@H](O)[C@](C)(O)[C@@H](CC)OC(=O)[C@H](C)[C@@H](O[C@H]2C[C@@](C)(OC)[C@](O)(CNc3ccc(Cl)nc3)[C@H](C)O2)[C@H](C)[C@@H](O[C@@H]2O[C@H](C)C[C@H](N(C)C)[C@H]2O)[C@](C)(O)C[C@H]1C [syzx-208] measured for Haemophilus parasuis.
// result 4

// query Retrieve MIC values, Haemophilus parasuis on Haemophilus parasuis; query CCCN1C[C@H](C)[C@@H](O)[C@](C)(O)[C@@H](CC)OC(=O)[C@H](C)[C@@H](O[C@H]2C[C@@](C)(OC)[C@](O)(CNC(=O)c3ccccc3)[C@H](C)O2)[C@H](C)[C@@H](O[C@@H]2O[C@H](C)C[C@H](N(C)C)[C@H]2O)[C@](C)(O)C[C@H]1C [syzx-219]
// result 4

// query State recorded MIC values, Haemophilus parasuis with Haemophilus parasuis, entry CCCCN(C)C[C@]1(O)[C@H](C)O[C@@H](O[C@H]2[C@H](C)[C@@H](O[C@@H]3O[C@H](C)C[C@H](N(C)C)[C@H]3O)[C@](C)(O)C[C@@H](C)NC[C@H](C)[C@@H](O)[C@](C)(O)[C@@H](CC)OC(=O)[C@@H]2C)C[C@@]1(C)OC [syzx-98] , no comment.
// result 0.5

---

Test system: Haemophilus parasuis
Assay: in vitro susceptibility, MIC by mini broth dilution
Assay type: cell-based
Protocol: in vitro tests of susceptibility of the compounds according to the present disclosure against bacterial strains commonly used in laboratories. […] The MICs (minimum inhibitory concentration) of the medicaments prepared according to the examples on the following bacterial strains were measured through mini broth dilution technique. […] The dilution ratio was recorded, and the bacterial liquid for the tests was diluted according to the recorded dilution ratio. […]
endpointName: MIC values, Haemophilus parasuis
Please state the number and follow it with the unit.

[[record]]
smilesnotation = "CCCN1C[C@H](C)[C@@H](O)[C@](C)(O)[C@@H](CC)OC(=O)[C@H](C)[C@@H](O[C@H]2C[C@@](C)(OC)[C@](O)(CNCCOCCO)[C@H](C)O2)[C@H](C)[C@@H](O[C@@H]2O[C@H](C)C[C@H](N(C)C)[C@H]2O)[C@](C)(O)C[C@H]1C"
endpointname = "MIC values, Haemophilus parasuis"
measuredresult = "0.25 ug/mi"


From here, focus on the item given below.
// query Write down MIC values, Haemophilus parasuis measured for item CC[C@H]1OC(=O)[C@H](C)[C@@H](O[C@H]2C[C@@](C)(OC)[C@](O)(CNCCc3ccncc3)[C@H](C)O2)[C@H](C)[C@@H](O[C@@H]2O[C@H](C)C[C@H](N(C)C)[C@H]2O)[C@](C)(O)C[C@@H](C)NC[C@H](C)[C@@H](O)[C@]1(C)O
// result 2 ug/mi

---

Measured MIC values, Actinobacillus pleuropneumoniae CVCC262 of individual entries
test system: Actinobacillus pleuropneumoniae CVCC262; assay: in vitro susceptibility, MIC by mini broth dilution; format: cell-based; details: strain CVCC262
// units = ug/mi; emit number, no label

[[record]]
compound = "CC[C@H]1OC(=O)[C@H](C)[C@@H](O[C@H]2C[C@@](C)(OC)[C@](O)(CNc3ccc(C)c(C)c3)[C@H](C)O2)[C@H](C)[C@@H](O[C@@H]2O[C@H](C)C[C@H](N(C)C)[C@H]2O)[C@](C)(O)C[C@@H](C)NC[C@H](C)[C@@H](O)[C@]1(C)O"
measuredresult = 2


Next, consider the following compound.
// query Look up and report measured MIC values, Actinobacillus pleuropneumoniae CVCC262 (Actinobacillus pleuropneumoniae CVCC262) for the following compound: CCCN1CC(C)C(O)C(C)(O)C(CC)OC(=O)C(C)C(OC2CC(C)(OC)C(O)(CNCCN3CCCC3)C(C)O2)C(C)C(OC2OC(C)CC(N(C)C)C2O)C(C)(O)CC1C (centres unmarked)
// result 0.5

---

test system: Haemophilus parasuis; test: in vitro susceptibility, MIC by mini broth dilution; format: cell-based
endpointName: MIC values, Haemophilus parasuis (ug/mi)
Kindly provide the numeric value in ug/mi only, without the unit symbol.

Below: 4 compounds and their reported MIC values, Haemophilus parasuis.
[[record]]
compound = "CC[C@H]1OC(=O)[C@H](C)[C@@H](O[C@H]2C[C@@](C)(OC)[C@](O)(CNc3ccc4ncccc4c3)[C@H](C)O2)[C@H](C)[C@@H](O[C@@H]2O[C@H](C)C[C@H](N(C)C)[C@H]2O)[C@](C)(O)C[C@@H](C)NC[C@H](C)[C@@H](O)[C@]1(C)O [syzx-99]"
measuredresult = 4

[[record]]
compound = "CCCN1C[C@H](C)[C@@H](O)[C@](C)(O)[C@@H](CC)OC(=O)[C@H](C)[C@@H](O[C@H]2C[C@@](C)(OC)[C@](O)(CNc3cc(Cl)ccc3C)[C@H](C)O2)[C@H](C)[C@@H](O[C@@H]2O[C@H](C)C[C@H](N(C)C)[C@H]2O)[C@](C)(O)C[C@H]1C [syzx-234]"
measuredresult = 4

[[record]]
compound = "CCCN1C[C@H](C)[C@@H](O)[C@](C)(O)[C@@H](CC)OC(=O)[C@H](C)[C@@H](O[C@H]2C[C@@](C)(OC)[C@](O)(CNC(C)C)[C@H](C)O2)[C@H](C)[C@@H](O[C@@H]2O[C@H](C)C[C@H](N(C)C)[C@H]2O)[C@](C)(O)C[C@H]1C [syzx-111]"
measuredresult = 0.25

[[record]]
compound = "CCCN1C[C@H](C)[C@@H](O)[C@](C)(O)[C@@H](CC)OC(=O)[C@H](C)[C@@H](O[C@H]2C[C@@](C)(OC)[C@](O)(CNc3ccc(OC)cc3)[C@H](C)O2)[C@H](C)[C@@H](O[C@@H]2O[C@H](C)C[C@H](N(C)C)[C@H]2O)[C@](C)(O)C[C@H]1C [syzx-183]"
measuredresult = 0.25


Moving on to the next compound.
// query Item CC[C@H]1OC(=O)[C@H](C)[C@@H](O[C@H]2C[C@@](C)(OC)[C@](O)(CN(C)C)[C@H](C)O2)[C@H](C)[C@@H](O[C@@H]2O[C@H](C)C[C@H](N(C)C)[C@H]2O)[C@](C)(O)C[C@@H](C)NC[C@H](C)[C@@H](O)[C@]1(C)O [Syzx-24] : provide MIC values, Haemophilus parasuis
// result 0.5

Data origin, for the record: patent US9765105B2
